Please go through the items and note down their logD.
# assay_method_text: Partition coefficients between PBS and octan-1-ol
# Format: physicochemical
# applied_conditions: octan-1-ol/PBS, means ± SE of 3 determinations, read-out: Partition coefficient (converted)
# Procedure: RP-HPLC was performed using a Gilson 321 pump with a C18 column (Jupiter 300 Å, Phenomenex) with a Widepore C18 guard column (Phenomenex). Samples (1 ml) were injected through a 0.22 μm PVDF filter (Millex, Millipore). […] Partition coefficients between PBS and octan-1-ol were determined as previously described.
Give bare numbers.

[in] Indicate its recorded logD; the compound in question is O=C([O-])C(F)(F)F.c1ccc([P+](CCCCCCOc2ccc3nccnc3c2)(c2ccccc2)c2ccccc2)cc1 [QE, trifluoroacetate]
[out] 1.13

More entries:
[in] Item "Nc1ccc(OCCCCCC[P+](c2ccccc2)(c2ccccc2)c2ccccc2)cc1N" : provide logD
[out] 0.38
